assay: parental Ba/F3 cell viability inhibition, counter-screen for JAK2V617F inhibitor project, murine pro-B, CellTiter-Glo luminescence (AID 1486); details: CellTiter-Glo ATP luminescence, at 5.6 µM, active compounds read high;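 also: 0% = DMSO wells and 100% = JAK Inhibitor I control wells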
Out of some 220,000 compounds screened, about 2,400 (1.1%) were called active. This excerpt belongs to a sample that is enriched for actives.
I'd appreciate it if you could supply inhibition values for the items below.

compound	inhibition
CSC(=S)N/N=C/c1c[nH]c2ccccc12	3.36% (inactive)

For each entry beneath this line, provide reported inhibition.
1. CCO/C=C1\C(=O)N(c2ccc(OCC)cc2)C(=O)c2ccccc21
2. S=c1[nH]nc(-c2ccccc2)n1/N=C/c1c[nH]c2ccccc12
3. COc1ccc(Cl)cc1CSc1ncn[nH]1
4. Cc1cc(C)c2nc(SCC(=O)N(C)C3CCS(=O)(=O)C3)cc(C)c2c1 (stereo unspecified)
5. O=C(NNC(=O)C1C2CCC(C2)C1C(=O)O)c1ccc(Cl)cc1 (stereo unspecified)
6. Cc1ccc(C(=O)COc2cccc(NC(=O)c3ccco3)c2)cc1

### Response
1: 0.91% (inactive); 2: 0.81% (inactive); 3: -3.75% (inactive); 4: 2.01% (inactive); 5: 2.39% (inactive); 6: 95.5% (active)

For each entry beneath this line, provide reported inhibition.
1. Cc1ccc(NC(=O)Cn2nc(C)c3ccccc3c2=O)c(C)c1
2. O=c1c2ccccc2nc2n1C(CSCc1ccccc1)CS2 (stereo unspecified)

### Response
1. 4.31% (inactive)
2. 39.8% (active)

For each entry beneath this line, provide reported inhibition.
1. COc1cccc(-n2c(SCC(=O)c3c[nH]c4ccccc34)nc3ccccc3c2=O)c1
2. COc1cccc(C(O)Cc2nc3ccccc3n2C)c1OC (stereo unspecified)

### Response
3.88% (inactive)
0.12% (inactive)

Origin of the recorded values: PubChem BioAssay AID1486
